These entries and their values trace back to ChEMBL document CHEMBL1201862.

system: DLD-1; experiment: NCI tumour cell line growth inhibition, 48 h
Activity calls are given as the source filed them. Cut-off read from the data, not from the text of the source: active = GI50 up to about 1.1 µM and inactive = higher.
Output constraint: value belongs to true (active), false (inactive)

- compound: "N#Cc1cccc(-n2[nH]c(=O)ccc2=O)c1"
  measured target: "DLD-1"
  group label: "false"
- compound: "Cc1cccc(/N=C/c2ccc(N(CCC#N)S(=O)(=O)c3ccccc3)cc2C)c1"
  measured target: "DLD-1"
  group label: "false"
- compound: "C[C@]12CC[C@H](OCCC#N)CC1=CC[C@@H]1C2CC[C@]2(C)/C(=N/OCCC#N)CCC12 (stereo partly specified)"
  measured target: "DLD-1"
  group label: "false"
- compound: "CC(=O)OC[C@@H](COC(=O)/C=C/c1ccc(O)cc1)OC1OC(CO)C(O)C(O)C1O (stereo partly specified)"
  measured target: "DLD-1"
  group label: "false"
- compound: "Nc1[nH]cnc2ncnc1-2"
  measured target: "DLD-1"
  group label: "false"

Test call for this compound, please: C/C(=N\[N+](C)(C)C)C(c1ccccc1)C1(c2ccccc2)C(c2ccccc2)=C1c1ccccc1 (stereo unspecified)
false

How did this test come out for "Cc1[nH]c2ccccc2c1C(=O)/C=C/c1ccccc1O" ?
false

# lookup: test call for "O=C(O)/C=C\C(=O)Nc1ccc(S(=O)(=O)c2ccc(NC(=O)/C=C\C(=O)O)cc2)cc1"
false

Write down the call the test reported for this compound. Item: Nc1nc(SCCNC(=O)CCc2ccc(O)c(I)c2)nc2c1ncn2C1OC(CO)C(O)C1O (stereo unspecified)
false

---

Assignment: determine reported GI50 for the given compounds.
test system: UO-31; assay: NCI tumour cell line growth inhibition, 48 h
The source made the active and inactive calls. Cut-off read from the data, not from the text of the source: active = GI50 up to about 1.1 µM and inactive = higher.

Take a look at these entries with their results.
- compound: "Cc1oc2c(C)c3oc(=O)cc(C)c3cc2c1CNC(=O)[C@@H]1OCCOCCOCCOCCOCCOC1C(=O)O (some centres not stated)"
  measured target: "UO-31"
  GI50: "> 100 µM (inactive)"
- compound: "O=C(Cc1ccccc1)NCCCN(CCCCN(CCCNC(=O)Cc1ccccc1)C(=O)OCc1ccccc1)C(=O)OCc1ccccc1"
  measured target: "UO-31"
  GI50: "1.66 µM (inactive)"
- compound: "N/N=C(\\c1nc2ccc(Cl)cc2nc1O)C(O)c1ccc(Cl)c(Cl)c1 (configuration not stated)"
  measured target: "UO-31"
  GI50: "> 100 µM (inactive)"

For the 7 compounds below, give their GI50 values.
1. C/N=c1/ssc(=S)n1C(C)C
2. COc1ccc2c(c1)CC[C@@H]1C2CC[C@]2(C)C(=O)N(CCN(C)C)C(=O)CC12 (some centres not stated)
3. COc1cccc(N2C(=O)CSC2c2cc(OC)c(OC)c(OC)c2)c1 (configuration not stated)
4. CCC1(OC(C)=O)C(=O)OCc2c1cc1n(c2=O)Cc2cc3ccccc3nc2-1 (configuration not stated)
5. Cc1[nH]c2ccccc2c1C(=O)/C=C/c1ccccc1O
6. N#CC(c1cc(Cl)ncn1)c1nc2ccccc2s1 (configuration not stated)
7. N#C/C(=C\NC(=S)c1ccncc1)c1nc2ccccc2s1

["37.7 µM (inactive)", "> 100 µM (inactive)", "36.8 µM (inactive)", "1 µM (active)", "> 100 µM (inactive)", "16.6 µM (inactive)", "> 100 µM (inactive)"]

Value sought for every listed compound: GI50.
1. O=C(CCCN1CCC2(CC1)CC(=O)N(N1CCCCCC1)C2=O)c1ccccc1
2. Cc1ccc(C(=O)O)cc1NC(=O)c1cc(/C=C/c2ccccc2)[nH]c(=S)n1
3. N/C(=C\c1ccc(/C=C(\NC(=O)c2ccccc2)c2nc3c([nH]2)C(=O)c2ccccc2C3=O)cc1)c1nc2c([nH]1)C(=O)c1ccccc1C2=O
4. Nc1ccn([C@@H]2C=C(CO)[C@@H](O)[C@H]2O)c(=O)n1

1: > 100 µM (inactive); 2: > 100 µM (inactive); 3: 4.84 µM (inactive); 4: 0.105 µM (active)

Need GI50 for each of these compounds.
1. COc1cccc(N2CCc3c(C)c(C#N)c4nc5ccccc5n4c32)c1
2. O=c1[nH]c2c(C(F)(F)F)c(Cl)c(-c3ccccc3)nc2o1
3. COc1cc2nncc(Sc3cnnc4ccccc34)c2cc1OC
4. C[C@@H]1[C@H](C)N1CC(O)Cn1ccnc1[N+](=O)[O-] (some centres not stated)
5. CC(=O)OC1COC(Nn2c(=O)[nH]c3ccccc3c2=O)C(OC(C)=O)C1OC(C)=O (configuration not stated)
6. O=C(N/C=C/C=C/Sc1ccccc1)OCc1ccccc1
7. CC1(C)[C@@H]2C[C@H]1c1cnc(-c3ccccn3)cc1[C@H]2C(O)[C@@H]1c2cc(-c3ccccn3)ncc2[C@H]2C[C@@H]1C2(C)C (some centres not stated)
8. Cc1ccc2nc(-c3ccc(-n4c(C)nc(=O)c(-c5ccc(F)cc5)c4C)cc3)sc2c1

1. > 100 µM (inactive)
2. 12.5 µM (inactive)
3. 19.1 µM (inactive)
4. > 100 µM (inactive)
5. 81.1 µM (inactive)
6. 17.5 µM (inactive)
7. 0.0785 µM (active)
8. 15 µM (inactive)

---

tested on: NCI-H460; experiment: NCI tumour cell line growth inhibition, 48 h
Calls of active or inactive are those of the source. No stated cut-off is given here; in the data, active = GI50 up to about 1.1 µM and inactive = higher.
Could you please report measured GI50 for the items listed next?

- compound: "CC(C)(C)N1C(=O)[N-]/[N+](=C(/C(c2ccccc2)=[N+]2/[N-]C(=O)N(C(C)(C)C)C2=O)c2ccccc2)C1=O"
  GI50: "> 100 µM (inactive)"
- compound: "Cc1ccc(S(=O)(=O)N/N=C(\\c2nc3ccc([N+](=O)[O-])cc3nc2O)C(O)c2ccccc2Cl)cc1 (centres undefined)"
  GI50: "> 100 µM (inactive)"
- compound: "CCOC(=O)C(=Cc1[nH]c2ccccc2c1-c1c[nH]c2ccccc12)C(=O)OCC"
  GI50: "12.6 µM (inactive)"
- compound: "Cc1ccc(S(=O)(=O)C(C#N)c2nc3ccccc3nc2N2CCOCC2)cc1 (centres undefined)"
  GI50: "17.9 µM (inactive)"
- compound: "COc1ccc(/C(=N/N=c2[nH]c3ccccc3[nH]2)C(=O)O)cc1"
  GI50: "> 100 µM (inactive)"

Below is a list of compounds. For each, state its recorded GI50.
1. N=C(N)Nc1ncccc1[N+](=O)[O-]
2. COc1cccc(C2c3cc4c(cc3OC(NNc3ccccc3)C2C)OCO4)c1OC (centres undefined)
3. O=C(c1ccccc1)C(c1ccccc1)C1(O)C(=O)Nc2c(Cl)cc(Cl)cc21 (centres undefined)
4. Cc1oc2c(C)c3oc(=O)cc(C)c3cc2c1CNC(=O)[C@@H]1OCCOCCOCCOCCOCCOC1C(=O)O (some centres undefined)

51.8 µM (inactive)
3.26 µM (inactive)
28.2 µM (inactive)
> 100 µM (inactive)

---

system: Hs-578T; assay: NCI tumour cell line growth inhibition, 48 h
Calls of active or inactive are those of the source. No stated cut-off is given here; in the data, active = GI50 up to about 1.1 µM and inactive = higher.
Output constraint: value belongs to active, inactive

Solved cases below.
- compound: "Cc1ccc(NCCN(C)C)c2c(=O)c3cc(O)ccc3oc12"
  measured target: "Hs-578T"
  group label: "inactive"
- compound: "CC1=C2CC3=C(C)C(=O)O[C@H]3C[C@@H](C)[C@@H]2CC1 [AMERICANOLIDE D]"
  measured target: "Hs-578T"
  group label: "inactive"
- compound: "COc1ccc(-c2oc3cc(O)c(OC)c(O)c3c(=O)c2O)cc1"
  measured target: "Hs-578T"
  group label: "inactive"
- compound: "Nc1nc(NCCCO)cc(=O)[nH]1"
  measured target: "Hs-578T"
  group label: "inactive"
- compound: "COC(=O)C1CC2(CCC1=O)Cc1ccccc1C2=O (configuration not stated)"
  measured target: "Hs-578T"
  group label: "inactive"
- compound: "CC1=NN(c2nc(N)nc(CF)n2)C(C)(C)C1"
  measured target: "Hs-578T"
  group label: "inactive"

Recorded call for "COC[C@H](Cc1ccccc1)/N=C/c1ccccc1" ?
inactive

So what was the verdict on CCc1cc2c(c3c1CCCC3=O)CC1(Cc3ccc(C(=O)OC)cc3C1)C2 (configuration not stated) in this test?
inactive

Could you kindly confirm the outcome this assay logged for "C=CCNC(=O)NC1=CSC2=NC(=O)C3(NN12)c1ccccc1-c1ccccc13" ?
inactive

Any idea what this test logged for CC(=O)OC1OC(c2ccoc2)C[C@@]12C1CCC3O[C@]3(C)[C@]1(C)[C@H](OC(C)=O)[C@H](OC(C)=O)[C@H]2C (some centres not stated) ?
inactive

Test call, this compound: "C(=N/Nc1ccc(-c2nc3ccccc3[nH]2)cc1)/c1c(-c2ccccc2)[nH]c2ccccc12"
active

Recorded test call requested for "O=C(CCCN1CCC2(CC1)CC(=O)N(N1CCCCCC1)C2=O)c1ccccc1"
inactive
